Tested on: SK-MEL-2 melanoma
Assay: NCI tumour cell line growth inhibition, 48 h
For each record, write down the corresponding TGI.

CNC(=S)/C(=N\Nc1nc[nH]c1C(N)=O)C(N)=S    > 82.3 µM
NC(N)=NCCCC(N=c1c2ccccc2n(O)c2ccccc12)C(=O)O (stereo not drawn)    > 100 µM
O=C(O)c1ccc(NC(=O)C2C(=O)C(=O)N(c3ccc(C(=O)O)cc3)C2=O)cc1 (stereo not drawn)    > 100 µM
CC(=O)Nc1ccc(/C=C(\NC(=O)c2ccccc2)c2nc3ccc4c(c3[nH]2)C(=O)c2ccccc2C4=O)cc1    > 100 µM
CC(=O)/C(C=Nc1c(C)n(C)n(-c2ccccc2)c1=O)=C(/C)O    > 100 µM
Cc1ccc(S(=O)ON2CCC(C(=O)O)(c3ccccc3)CC2)cc1 (stereo not drawn)    > 100 µM
O=C1C=CC(=O)c2c1ccc1c3ccccc3n(-c3ccccn3)c21    > 100 µM
Cc1ccc(C)c(NC(=O)C(=O)C2C(=O)C3=C(CC2(C)C)Nc2ccccc2S3)c1 (stereo not drawn)    > 100 µM
CCCCCCCCCCCCCS(=O)(=O)O    > 100 µM
COc1cc(Nc2cnc3cc(C(F)(F)F)ccc3n2)cc(OC)c1OC    > 100 µM

# map each molecule to its TGI
1. O=C(c1ccccc1)c1ccc(C(c2c(O)c3ccccc3oc2=O)c2c(O)c3ccccc3oc2=O)cc1
2. O=C(Cc1nc2ccccc2s1)C(=O)Nc1ccc(Cl)cc1
3. Cc1[nH]c2ncn3nc(C(Cl)(Cl)Cl)nc3c2c1Cc1ccccc1

-- reply
> 71.3 µM
> 100 µM
> 100 µM
